# measurementTarget: HDAC7 (Homo sapiens)
# Sequence (Q8WUI4 whole entry): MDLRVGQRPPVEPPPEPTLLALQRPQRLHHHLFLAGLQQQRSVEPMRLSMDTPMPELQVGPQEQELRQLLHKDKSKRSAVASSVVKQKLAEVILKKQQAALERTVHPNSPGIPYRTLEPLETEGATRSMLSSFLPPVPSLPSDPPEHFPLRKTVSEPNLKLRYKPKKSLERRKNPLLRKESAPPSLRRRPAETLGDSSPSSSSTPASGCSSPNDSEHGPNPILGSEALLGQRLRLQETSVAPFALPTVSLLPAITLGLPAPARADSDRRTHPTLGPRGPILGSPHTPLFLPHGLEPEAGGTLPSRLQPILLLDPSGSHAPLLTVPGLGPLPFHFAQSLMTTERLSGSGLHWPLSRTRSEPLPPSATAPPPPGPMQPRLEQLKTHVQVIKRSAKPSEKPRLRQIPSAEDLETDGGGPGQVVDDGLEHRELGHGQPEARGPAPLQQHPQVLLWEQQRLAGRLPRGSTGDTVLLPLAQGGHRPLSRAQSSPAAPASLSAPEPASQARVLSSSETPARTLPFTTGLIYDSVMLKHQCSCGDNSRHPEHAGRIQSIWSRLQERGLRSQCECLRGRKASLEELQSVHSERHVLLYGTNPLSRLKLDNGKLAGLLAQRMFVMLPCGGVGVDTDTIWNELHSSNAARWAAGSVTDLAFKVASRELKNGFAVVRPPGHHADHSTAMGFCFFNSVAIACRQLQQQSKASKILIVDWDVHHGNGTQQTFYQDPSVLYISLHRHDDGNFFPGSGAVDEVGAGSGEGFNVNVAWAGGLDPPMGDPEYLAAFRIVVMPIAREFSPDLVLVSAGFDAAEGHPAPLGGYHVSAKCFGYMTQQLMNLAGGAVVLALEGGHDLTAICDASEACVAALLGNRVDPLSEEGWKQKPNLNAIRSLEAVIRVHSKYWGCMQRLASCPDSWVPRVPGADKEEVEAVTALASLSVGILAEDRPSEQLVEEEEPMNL
# procedureText: HDAC7 colorimetric assay, substrate Boc-Lys(TFA)-AMC
# testParameters: IC50 HDAC7, Table 1
recordedMetric: pIC50
Reminder that pIC50 is minus the log10 of a molar concentration.

*Q* Give the measured pIC50 of N=C1Sc2ccc(F)cc2C2=NCCCN12 [Compound 13l] .
*A* 5.82

*Q* Quick check: pIC50 of CN(C)c1ccc2c(c1)SC(=N)N1CCCN=C21 [Compound 13d] ?
*A* 5.70

*Q* // returns reported pIC50 for input N=C1Sc2cccc(Br)c2C2=NCCCN12 [Compound 13j]
*A* 5.70

*Q* Look up pIC50: Cc1ccc2c(c1)SC(=N)N1CCCN=C21 [Compound 13k]
*A* 5.60

*Q* Using the record for N=C1Sc2c(F)cccc2C2=NCCCN12 [Compound 13h] , report its pIC50.
*A* 5.30

*Q* Query: pIC50; subject: N=C1Sc2ccc(Cl)cc2C2=NCCN12 [Compound 13c]
*A* 6.30

*Q* GET /values?readout=pIC50&item= Cc1cccc2c1C1=NCCCN1C(=N)S2 [Compound 13m]
*A* 5.89

*Q* Return reported pIC50; argument: N=C1Sc2cc(Br)ccc2C2=NCCCN12 [Compound 13g]
*A* 5.77

*Q* Would you mind telling me what pIC50 value was observed for N=C1Sc2cc(F)ccc2C2=NCCCN12 [Compound 13f] ?
*A* 5.59

*Q* // query pIC50 value for entry N=C1Sc2ccccc2C2=NCCN12 [Compound 13b]
*A* 5.89
